# Tested target: CCAAT/enhancer-binding protein beta (Homo sapiens)
# Measurement notes: ATG_C_EBP_CIS: Attagene CIS-FACTORIAL HepG2 Assay for human CCAAT/Enhancer Binding Protein (C/EBP) beta (AID 2282927)
# Reported conditions: HepG2 Attagene cis-factorial transcription factor reporter; actives raise or lower the signal
Calls of active or inactive are those of the source. The calls were made as follows: active = hit-call score of the fitted dose curve at least 0.9, where 1 is the maximum; inactive = score below 0.9.
Please reply with one of these outcomes: T (active), F (inactive)

[[record]]
molecule = "Cl/C=C/Cl"
label = "F"

[[record]]
molecule = "COP(=S)(OC)Oc1c(Cl)cc(C)cc1Cl"
label = "F"

[[record]]
molecule = "CC(Br)C(=O)O (configuration not stated)"
label = "F"

[[record]]
molecule = "CC(=[OH+])/C=C(/C)[O-].CC(=[OH+])/C=C(/C)[O-].CC(=[OH+])/C=C(/C)[O-].[Fe]"
label = "F"

[[record]]
molecule = "COP(=S)(OC)Oc1ccc(Sc2ccc(OP(=S)(OC)OC)cc2)cc1"
label = "F"


Request: Per the assay record, what outcome was assigned to Cn1sc(Cl)cc1=O ?
Response: F

Request: Per the assay record, what outcome was assigned to C[C@H]1CCCC(=O)CCC/C=C/c2cc(O)cc(O)c2C(=O)O1 ?
Response: F

Request: Per the assay record, what outcome was assigned to CC(C)(C)c1cc(O)ccc1O ?
Response: T

Request: Per the assay record, what outcome was assigned to Cc1cc(Cl)ccc1O[C@H](C)C(=O)O ?
Response: F

Request: Per the assay record, what outcome was assigned to CCC[CH2][Sn]([CH2]CCC)([CH2]CCC)[O]C(=O)c1ccccc1 ?
Response: T

---

# Read-out: C-C motif chemokine 2 (Homo sapiens) (UniProt P13500)
# Measurement notes: BSK_KF3CT_MCP1: BioMAP Diversity Plus: KF3CT Assay for Monocyte Chemoattractant Protein 1 (MCP1/CCL2) Biomarker Activity (AID 2283073)
# Reported conditions: primary human keratinocytes with fibroblasts; actives raise or lower the signal
The source made the active and inactive calls. Rule for the calls: active = hit-call score of the fitted dose curve at least 0.9, where 1 is the maximum; inactive = score below 0.9.
Please reply with one of these outcomes: active, inactive

[[record]]
molecule = "CCSC(C)CC1CC(=O)C(C(CC)=NOC/C=C/Cl)=C(O)C1 (configuration not stated)"
label = "inactive"


Request: Per the assay record, what outcome was assigned to NC(=S)Nc1ccccc1 ?
Response: inactive

Request: Per the assay record, what outcome was assigned to C[C@]12CCC(=O)C[C@@H]1CC[C@@H]1[C@@H]2CC[C@]2(C)[C@@H](O)CC[C@@H]12 ?
Response: inactive

Request: Per the assay record, what outcome was assigned to CCOP(=S)(OCC)SCSP(=S)(OCC)OCC ?
Response: inactive

Request: Per the assay record, what outcome was assigned to CC(C)CCCCCCOC(=O)c1ccccc1C(=O)OCCCCCCC(C)C ?
Response: inactive

Request: Per the assay record, what outcome was assigned to COc1cc(OC)nc(NC(=O)NS(=O)(=O)c2ncccc2C(=O)N(C)C)n1 ?
Response: inactive

Request: Per the assay record, what outcome was assigned to O=C(O)CCC(F)(C(F)(F)F)C(F)(F)F ?
Response: inactive

Request: Per the assay record, what outcome was assigned to O=C1C2(Cl)C3(Cl)C4(Cl)C(Cl)(Cl)C5(Cl)C3(Cl)C1(Cl)C5(Cl)C24Cl (configuration not stated) ?
Response: active

Request: Per the assay record, what outcome was assigned to OCc1ccco1 ?
Response: inactive

Request: Per the assay record, what outcome was assigned to CCNc1nc(NC(C)(C)C)nc(SC)n1 ?
Response: inactive

Request: Per the assay record, what outcome was assigned to COC(=O)c1sccc1S(=O)(=O)NC(=O)Nc1nc(C)nc(OC)n1 ?
Response: inactive

Request: Per the assay record, what outcome was assigned to Oc1c(I)cc(I)cc1I ?
Response: inactive
